Assay: Half life in mouse liver microsomes at 3 uM by LC-MS/MS analysis
Assay type: ADME, Microsome
Reported values of half-life at 3 µM for individual entries
propertyLabel: half-life at 3 µM (min)

> print(dat)
                                   molecule  unittag  measuredvalue
1       c1ccc2cc([C@]34CCC[C@H]3CNC4)ccc2c1      min             26
2  Clc1ccc([C@]23CCC[C@H]2CNC3)cc1Cl (single isomer, unassigned)      min             56
3       Clc1ccc([C@@]23CCC[C@@H]2CNC3)cc1Cl      min             91
4  CN1C[C@@H]2CCC[C@]2(c2ccc(Cl)c(Cl)c2)C1 (single isomer, unassigned)      min             27
5   CN1C[C@H]2CCC[C@@]2(c2ccc(Cl)c(Cl)c2)C1      min             27
6  CN1C[C@H]2CCCC[C@@]2(c2ccc(Cl)c(Cl)c2)C1 (single isomer, unassigned)      min             45
7     CN1C[C@@H]2CCC[C@]2(c2ccc3ccccc3c2)C1      min             18

---

Reported values of log10 of IC50 for individual entries
Biological target: CYP1A (Homo sapiens, UniProt P04798+P05177)
Assay: Inhibition of CYP1A in human liver microsomes by LC-MS/MS analysis
Format: ADME, Microsome
propertyLabel: log10 of IC50 (log10 of the value in µM)

> print(dat)
                                   molecule  propertylabel  measuredvalue
1       Clc1ccc([C@@]23CCC[C@@H]2CNC3)cc1Cl  log10 of IC50           1.27
2  Clc1ccc([C@]23CCC[C@H]2CNC3)cc1Cl (single isomer, unassigned)  log10 of IC50          -0.28
3     c1ccc2cc([C@@]34CCC[C@@H]3CNC4)ccc2c1  log10 of IC50          -0.15
4        Clc1ccc([C@]23CCCC[C@H]2CNC3)cc1Cl  log10 of IC50           0.90
5  CN1C[C@@H]2CCC[C@]2(c2ccc(Cl)c(Cl)c2)C1 (single isomer, unassigned)  log10 of IC50           0.17
6  CN1C[C@@H]2CCCC[C@]2(c2ccc(Cl)c(Cl)c2)C1  log10 of IC50           0.48
7  CCN1C[C@@H]2CCCC[C@]2(c2ccc(Cl)c(Cl)c2)C1 (single isomer, unassigned)  log10 of IC50           0.63
8       c1ccc2cc([C@]34CCC[C@H]3CNC4)ccc2c1  log10 of IC50           0.62
9      Clc1ccc([C@@]23CCCC[C@@H]2CNC3)cc1Cl  log10 of IC50           0.79

---

Assay: Ratio of drug level in brain to plasma in mouse at 30 mg/kg, po
Assay type: ADME, organism-based
Set-up: dose 30 mg/kg, route oral
Conditions: brain and plasma, read-out: BPR
propertyLabel: Kp

> print(dat)
                              inputsmiles  propertylabel  measuredvalue
1  Cl.Clc1ccc([C@@]23CCC[C@@H]2CNC3)cc1Cl             Kp             30

---

What follows is a collection of IC50 values obtained with Cytochrome P450 2C9 (Homo sapiens, UniProt P11712).
Sequence (P11712 whole entry): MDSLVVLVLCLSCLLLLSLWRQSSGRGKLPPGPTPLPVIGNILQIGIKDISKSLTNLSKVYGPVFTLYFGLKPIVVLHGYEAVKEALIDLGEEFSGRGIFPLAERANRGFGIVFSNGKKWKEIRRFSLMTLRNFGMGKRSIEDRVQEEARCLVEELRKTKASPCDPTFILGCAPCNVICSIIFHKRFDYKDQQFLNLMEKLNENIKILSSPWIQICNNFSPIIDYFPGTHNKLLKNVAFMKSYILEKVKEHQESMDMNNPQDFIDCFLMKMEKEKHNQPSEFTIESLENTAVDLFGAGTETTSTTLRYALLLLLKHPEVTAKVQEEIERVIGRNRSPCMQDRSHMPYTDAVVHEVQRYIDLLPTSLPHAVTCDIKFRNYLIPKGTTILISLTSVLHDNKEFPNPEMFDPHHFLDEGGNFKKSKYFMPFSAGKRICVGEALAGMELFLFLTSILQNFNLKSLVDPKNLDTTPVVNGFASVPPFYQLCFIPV
propertyLabel: IC50

> print(dat)
                                   compound  propertylabel  measuredvalue
1     c1ccc2cc([C@@]34CCC[C@@H]3CNC4)ccc2c1           IC50        14.4 µM
2  CN1C[C@@H]2CCCC[C@]2(c2ccc(Cl)c(Cl)c2)C1           IC50        > 25 µM
3  CN1C[C@H]2CCCC[C@@]2(c2ccc(Cl)c(Cl)c2)C1 (single isomer, unassigned)           IC50        > 25 µM
4  CCN1C[C@H]2CCCC[C@@]2(c2ccc(Cl)c(Cl)c2)C1           IC50         > 5 µM
5       c1ccc2cc([C@]34CCC[C@H]3CNC4)ccc2c1           IC50        > 25 µM

---

Target: Cytochrome P450 2D6 (Homo sapiens, UniProt P10635)
Sequence (P10635 whole entry): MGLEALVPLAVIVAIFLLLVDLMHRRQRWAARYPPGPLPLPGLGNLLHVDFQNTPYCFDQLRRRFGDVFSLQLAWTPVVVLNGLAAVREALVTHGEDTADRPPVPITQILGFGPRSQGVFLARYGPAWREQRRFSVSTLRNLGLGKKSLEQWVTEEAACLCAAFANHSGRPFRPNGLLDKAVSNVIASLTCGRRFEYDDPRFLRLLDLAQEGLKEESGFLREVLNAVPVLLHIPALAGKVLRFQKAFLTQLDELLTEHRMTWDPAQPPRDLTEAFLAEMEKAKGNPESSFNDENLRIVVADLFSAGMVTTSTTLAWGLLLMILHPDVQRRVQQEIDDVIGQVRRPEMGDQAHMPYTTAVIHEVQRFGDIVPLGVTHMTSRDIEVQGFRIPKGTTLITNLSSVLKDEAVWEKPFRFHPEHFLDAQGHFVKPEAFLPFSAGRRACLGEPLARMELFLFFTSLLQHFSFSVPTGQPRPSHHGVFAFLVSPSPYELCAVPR
Please note: IC50 exactly at 4 µM is NOT MET. Only values below 4 µM get MET.

> print(dat)
                                   compound  classlabel
1  Clc1ccc([C@]23CCC[C@H]2CNC3)cc1Cl (single isomer, unassigned)         MET
2       c1ccc2cc([C@]34CCC[C@H]3CNC4)ccc2c1     NOT MET
3     c1ccc2cc([C@@]34CCC[C@@H]3CNC4)ccc2c1     NOT MET
4     CN1C[C@@H]2CCC[C@]2(c2ccc3ccccc3c2)C1         MET
5  CN1C[C@@H]2CCC[C@]2(c2ccc(Cl)c(Cl)c2)C1 (single isomer, unassigned)     NOT MET

---

Molecular target: Sodium-dependent serotonin transporter (Homo sapiens, UniProt P31645)
Sequence (P31645 whole entry): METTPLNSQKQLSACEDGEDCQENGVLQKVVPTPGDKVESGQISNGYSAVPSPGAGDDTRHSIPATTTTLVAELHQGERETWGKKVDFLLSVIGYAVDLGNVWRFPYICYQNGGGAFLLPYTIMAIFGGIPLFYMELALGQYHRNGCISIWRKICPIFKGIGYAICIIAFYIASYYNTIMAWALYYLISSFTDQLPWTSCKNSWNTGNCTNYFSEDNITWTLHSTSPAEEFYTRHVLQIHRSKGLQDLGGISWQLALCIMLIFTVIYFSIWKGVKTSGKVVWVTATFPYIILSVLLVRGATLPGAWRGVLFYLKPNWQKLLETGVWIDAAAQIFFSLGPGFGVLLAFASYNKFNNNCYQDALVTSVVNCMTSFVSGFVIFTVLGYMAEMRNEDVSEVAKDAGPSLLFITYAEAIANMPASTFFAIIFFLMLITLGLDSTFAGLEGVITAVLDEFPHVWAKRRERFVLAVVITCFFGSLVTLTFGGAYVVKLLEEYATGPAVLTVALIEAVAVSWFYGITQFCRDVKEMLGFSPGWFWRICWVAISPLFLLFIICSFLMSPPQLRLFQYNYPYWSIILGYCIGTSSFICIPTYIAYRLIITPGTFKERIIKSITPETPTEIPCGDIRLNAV
Assay: Inhibition of serotonin reuptake at SERT expressed in HEK293 cells
pIC50: −log10 of the molar value.
propertyLabel: pIC50

> print(dat)
                                   compound  propertylabel  measuredvalue
1  CN1C[C@@H]2CCC[C@]2(c2ccc(Cl)c(Cl)c2)C1 (single isomer, unassigned)          pIC50           7.08
2  Clc1ccc([C@]23CCCC[C@@H]2CNC3)cc1Cl (racemic; 19b)          pIC50           5.72
3     CN1C[C@H]2CCC[C@@]2(c2ccc3ccccc3c2)C1          pIC50           7.84
4  COc1ccc([C@]23CCC[C@H]2CN(C)C3)cc1 (racemic)          pIC50           8.35
5    CN1C[C@H]2CCCC[C@@]2(c2cccc3ccccc23)C1          pIC50           7.48

---

Molecular target: Sodium-dependent serotonin transporter (Homo sapiens, UniProt P31645)
Assay: Inhibition of serotonin reuptake at SERT expressed in HEK293 cells
Please note: IC50 exactly at 100 nM is rule not met. Only values below 100 nM get rule met.

> print(dat)
                                    compound                               studysystem    classlabel
 1  Clc1ccc([C@]23CCCC[C@H]2CNC3)cc1Cl (racemic)  Sodium-dependent serotonin transporter (Homo sapiens, UniProt P31645)  rule not met
 2  CN1C[C@@H]2CCCC[C@]2(c2ccc(Cl)c(Cl)c2)C1  Sodium-dependent serotonin transporter (Homo sapiens, UniProt P31645)  rule not met
 3    CN1C[C@@H]2CCCC[C@]2(c2ccc3ccccc3c2)C1  Sodium-dependent serotonin transporter (Homo sapiens, UniProt P31645)      rule met
 4  COc1cccc([C@]23CCCC[C@H]2CN(C)C3)c1 (racemic)  Sodium-dependent serotonin transporter (Homo sapiens, UniProt P31645)  rule not met
 5  CN1C[C@@H]2CCCC[C@]2(c2ccc(F)c(F)c2)C1 (racemic)  Sodium-dependent serotonin transporter (Homo sapiens, UniProt P31645)  rule not met
 6  CN1C[C@@H]2CCCC[C@]2(c2ccc3ccccc3c2)C1 (racemic)  Sodium-dependent serotonin transporter (Homo sapiens, UniProt P31645)      rule met
 7  CN1C[C@@H]2CCC[C@]2(c2ccc3ccccc3c2)C1 (racemic)  Sodium-dependent serotonin transporter (Homo sapiens, UniProt P31645)      rule met
 8  CN1C[C@@H]2CCCC[C@]2(c2cccc3ccccc23)C1 (racemic)  Sodium-dependent serotonin transporter (Homo sapiens, UniProt P31645)  rule not met
 9  COc1ccc([C@]23CCCC[C@H]2CN(C)C3)cc1OC (racemic)  Sodium-dependent serotonin transporter (Homo sapiens, UniProt P31645)      rule met
10  CN1C[C@H]2CCCC[C@@]2(c2ccc(Cl)c(Cl)c2)C1 (single isomer, unassigned)  Sodium-dependent serotonin transporter (Homo sapiens, UniProt P31645)      rule met
11  COc1ccc([C@]23CCCC[C@H]2CN(C)C3)cc1 (racemic)  Sodium-dependent serotonin transporter (Homo sapiens, UniProt P31645)  rule not met
12  CN1C[C@H]2CCCC[C@@]2(Cc2ccc(Cl)c(Cl)c2)C1 (stereo in doubt)  Sodium-dependent serotonin transporter (Homo sapiens, UniProt P31645)      rule met
13  COc1cccc([C@]23CCC[C@H]2CN(C)C3)c1 (racemic)  Sodium-dependent serotonin transporter (Homo sapiens, UniProt P31645)  rule not met
14  CCN1C[C@H]2CCCC[C@@]2(c2ccc(Cl)c(Cl)c2)C1  Sodium-dependent serotonin transporter (Homo sapiens, UniProt P31645)      rule met
